Target: T1, human CTLA-4 (Example 3 ELISAs, construct not stated) (human, UniProt P16410 36-161)
T1 sequence (looked up): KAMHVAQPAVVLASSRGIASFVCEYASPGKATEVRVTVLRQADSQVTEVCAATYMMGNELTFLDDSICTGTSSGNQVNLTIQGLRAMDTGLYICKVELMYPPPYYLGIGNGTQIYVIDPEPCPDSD
Assay: competition ELISA: coated human CTLA-4, antibody mixed with biotinylated CD86, bound ligand detected with streptavidin-HRP [B) CD86]
MEASURED ATTRIBUTE: IC50 (read off the curve)

| BINDER | MEASURED ATTRIBUTE | RESULT |
| --- | --- | --- |
| W3162-1.145.10 xAb.IgG1 (antibody, V domains shown, Chimeric: rat variable regions fused with constant region of human antibody (label xAb.IgG1)) VH: EVQLVESGGGLVQPGRSLKLSCAASDLTFSNYDMAWVRQTPTKGLEWVASISPNGGNTYYRDSVKGRFTVSRDNAKNSLYLQMDSLRSEDTATYYCARHLWFAYWGQGTLVTVSS VL: DIQMTQSPSSMSASLGDRVTISCQASQDIGSNLIWFQQKPGKSPRPMIYYATHLADGVPSRFSGSRSGSDYSLTISSLESEDVADYHCLQYKQYPRTFGGGTKLELK | IC50 (read off the curve) | ~400 pM |
| W3162-1.154.8 xAb.IgG1 (antibody, V domains shown, Chimeric: rat variable regions fused with constant region of human antibody (label xAb.IgG1)) VH: EVQLQQSGPEAGRPGSSVKISCKASGYTFTNYFMNWVKQSPGQGLEWIGRVDPENGRADYAEKFKKKATLTADTTSNTAYIHLSSLTSEDTATYFCARRAMDNYGFAYWGQGTLVTVSS VL: EIMLTQSPTIMAASLGEKITITCSANSSLSYMYWFQQKSGASPKLWVHGTSNLASGVPDRFSGSGSGTSYYLTINTMEAEDAATYFCHHWSNTQWTFGGGTKLELK | IC50 (read off the curve) | ~400 pM |
| W3162-1.101.2 xAb.IgG1 (antibody, V domains shown, Chimeric: rat variable regions fused with constant region of human antibody (label xAb.IgG1)) VH: EEQLVESGGGLVQPGKSLKLSCSASGFTFRSSAMHWIRQPPGKGLDWVAFISSGGDTAYADAVKGRFIVSRDNAENTLFLQLNSLKSEDTAIYYCVRMERIPTWGQGVMVTVSS VL: DIVLTQSPVLAVSLGQRATISCRASQSVSISSINLIHWYQQRPGQQPKLLIYRTSNLASGIPARFSGSGSGTDFTLSIDPVQADDVADYYCQQSRESPLTFGSGTKLEIK | IC50 (read off the curve) | ~500 pM |
| W3162-1.146.19 xAb.IgG1 (antibody, V domains shown, Chimeric: rat variable regions fused with constant region of human antibody (label xAb.IgG1)) VH: EVQLQESGPGLVKPSQSLSLTCSVTYHTITSGYDWTWIRKFPGNQMEWMGYISYSGNTNYNPSLKSRISITRDTSKNQFFLHLNSVTSEDTATYYCASMMVPHYYVMDAWGQGASVTVSS VL: DVVLTQTPPTSSATIGQSVSISCRSSQSLLNSDGNTYLYWYLQRPSQSPQLLIYLVSKLGSGVPNRFSGSGSGTDFTLKISGVEAEDLGLYYCVQGTHDPWTFGGGTKLELK | IC50 (read off the curve) | ~800 pM |
